Target: C-C chemokine receptor type 1 (Homo sapiens, UniProt P32246)
Sequence (P32246 whole entry): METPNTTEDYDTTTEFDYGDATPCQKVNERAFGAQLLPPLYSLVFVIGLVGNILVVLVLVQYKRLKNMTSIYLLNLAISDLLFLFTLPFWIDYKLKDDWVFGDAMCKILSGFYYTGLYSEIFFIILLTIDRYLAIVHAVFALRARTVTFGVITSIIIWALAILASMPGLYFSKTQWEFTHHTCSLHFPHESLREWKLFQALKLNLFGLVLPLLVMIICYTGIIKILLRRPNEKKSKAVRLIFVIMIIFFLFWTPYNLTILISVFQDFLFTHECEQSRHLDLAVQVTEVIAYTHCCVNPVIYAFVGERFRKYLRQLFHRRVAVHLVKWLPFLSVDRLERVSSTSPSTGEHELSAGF
Test: Displacement of [125I]MIP-1alpha from human CCR1 in THP cells
pIC50: −log10 of the molar value.
observable: pIC50

Req: Requested field: pIC50. Item: `Nc1ccc(C(F)(F)F)cc1C(=O)NCC(=O)N[C@@H]1CCN(Cc2ccc(Cl)cc2)C1`
Resp: < 6.00

---

Target: UniProtKB P41597
Test: Displacement of [125I]MCP1 from human CCR2b in THP1 cells
Format: cell-based, THP-1
Please provide measured pIC50 for the entries that follow.
Field pIC50 (float): negative decimal logarithm of the concentration in molar.

Req: # lookup: pIC50 of `C=Cc1ccc(CN2CC[C@@H](NC(=O)CNC(=O)c3cc(C(F)(F)F)ccc3N)C2)cc1`
Resp: 7.72

Req: # lookup: pIC50 of `CCc1ccc(CN2CC[C@@H](NC(=O)CNC(=O)c3cc(C(F)(F)F)ccc3N)C2)cc1`
Resp: 7.96

Req: # input compound: `Cc1ccccc1CN1CC[C@@H](NC(=O)CNC(=O)c2cccc(C(F)(F)F)c2)C1` ; wanted: its pIC50
Resp: 6.02

Req: Can you share its pIC50? I mean this compound: `O=C(CNC(=O)c1cccc(C(F)(F)F)c1)N[C@@H]1CCN(Cc2ccccc2-c2ccc3ccccc3c2)C1`
Resp: 6.12

Req: # get_value(readout='pIC50', item= `Nc1ccc([N+](=O)[O-])cc1C(=O)NCC(=O)N[C@@H]1CCN(Cc2ccc(Cl)cc2)C1` )
Resp: 6.68

Req: Param item = `O=C(CNC(=O)c1cccc(C(F)(F)F)c1)N[C@@H]1CCN(Cc2ccc(F)cc2)C1` ; retrieve measured pIC50.
Resp: 6.02

Req: I would be grateful if you could share the reported pIC50 for `O=C(CNC(=O)c1cccc(C(F)(F)F)c1)N[C@@H]1CCN(Cc2ccc(Cl)cc2Cl)C1` .
Resp: 6.52

Req: Bench note: what pIC50 did `COc1cc(CN2CC[C@@H](NC(=O)CNC(=O)c3cc(C(F)(F)F)ccc3N)C2)ccc1O` show?
Resp: 7.41

Req: For the compound `CCc1ccc(CN2CC[C@@H](NC(=O)CNC(=O)c3cccc(C(F)(F)F)c3)C2)cc1` , what pIC50 is on record?
Resp: 7.23

Req: Please look up its pIC50: `COc1ccc(CN2CC[C@@H](NC(=O)CNC(=O)c3cc(C(F)(F)F)ccc3N)C2)cc1O`
Resp: 7.28

Req: Looking for the measured pIC50 of `Cc1ccc(CN2CC[C@@H](NC(=O)CNC(=O)c3cc(C(F)(F)F)ccc3N)C2)c(C)c1` , can you help?
Resp: 8.49

Req: What does the data say about its pIC50? Entry: `Nc1ccc(Cl)cc1C(=O)NCC(=O)N[C@@H]1CCN(Cc2ccc(Cl)cc2)C1`
Resp: 6.14

Req: Can you share its pIC50? I mean this compound: `COc1ccc(CN2CC[C@@H](NC(=O)CNC(=O)c3cccc(C(F)(F)F)c3)C2)cc1`
Resp: 6.94

Req: Dear colleague, I am looking for the recorded pIC50 of the following compound: `O=C(CNC(=O)c1cccc(C(F)(F)F)c1)N[C@@H]1CCN(Cc2ccc([N+](=O)[O-])cc2)C1`
Resp: 5.81

Req: Please report the recorded pIC50 for `O=C(CNC(=O)c1cccc(C(F)(F)F)c1)N[C@@H]1CCN(Cc2ccccc2)C1` .
Resp: 6.16

Req: GET /values?readout=pIC50&item= `Cc1ccc(C(=O)NCC(=O)N[C@@H]2CCN(Cc3ccc(Cl)cc3)C2)cc1`
Resp: 5.00

Req: Name the reported pIC50 value associated with the compound `Cc1cccc(C(=O)NCC(=O)N[C@@H]2CCN(Cc3ccc(Cl)cc3)C2)c1`
Resp: 5.62

Req: Bench note: what pIC50 did `O=C(CNC(=O)c1cccc(C(F)(F)F)c1)N[C@@H]1CCN(Cc2ccccc2Cl)C1` show?
Resp: 6.20

Req: Would you kindly share the measured pIC50 for `CC(=O)Nc1ccc(CN2CC[C@@H](NC(=O)CNC(=O)c3cccc(C(F)(F)F)c3)C2)cc1` ?
Resp: 6.52

Req: Would you mind telling me what pIC50 value was observed for `O=C(CNC(=O)c1cccc(OC(F)(F)F)c1)N[C@@H]1CCN(Cc2ccc(Cl)cc2)C1` ?
Resp: 6.31

Req: What does the record list as pIC50 for `Nc1ccc(OC(F)(F)F)cc1C(=O)NCC(=O)N[C@@H]1CCN(Cc2ccc(Cl)cc2)C1` ?
Resp: 7.06

Req: Data request, read-out pIC50, for `O=C(CNC(=O)c1cccc([N+](=O)[O-])c1)N[C@@H]1CCN(Cc2ccc(Cl)cc2)C1`
Resp: 6.08

Req: Record request: pIC50 value, item `COc1cc(CN2CC[C@@H](NC(=O)CNC(=O)c3cccc(C(F)(F)F)c3)C2)ccc1O`
Resp: 6.82

Req: Give its pIC50 value. Item: `C=Cc1ccc(CN2CC[C@@H](NC(=O)CNC(=O)c3cccc(C(F)(F)F)c3)C2)cc1`
Resp: 6.92

Req: Name the reported pIC50 value associated with the compound `Nc1ccc(I)cc1C(=O)NCC(=O)N[C@@H]1CCN(Cc2ccc(Cl)cc2)C1`
Resp: 6.51

Req: Can you look up the measured pIC50 of `O=C(CNC(=O)c1cccc(F)c1)N[C@@H]1CCN(Cc2ccc(Cl)cc2)C1` for me?
Resp: 5.36

---

Target: C-C chemokine receptor type 2 (Homo sapiens, UniProt P41597)
Sequence (P41597 whole entry): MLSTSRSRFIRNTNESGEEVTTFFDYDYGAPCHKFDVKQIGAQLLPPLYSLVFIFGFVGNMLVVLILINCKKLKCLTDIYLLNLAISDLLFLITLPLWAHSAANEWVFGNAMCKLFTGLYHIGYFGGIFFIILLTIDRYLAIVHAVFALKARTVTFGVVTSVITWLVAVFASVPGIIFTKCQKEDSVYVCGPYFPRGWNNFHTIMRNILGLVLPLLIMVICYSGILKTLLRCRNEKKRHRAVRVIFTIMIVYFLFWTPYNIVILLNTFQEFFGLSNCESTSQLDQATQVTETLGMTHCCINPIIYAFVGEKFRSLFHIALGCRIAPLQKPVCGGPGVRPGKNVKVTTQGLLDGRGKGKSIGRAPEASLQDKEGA
Assay: Displacement of [125I]MCP1 from human CCR2b in HEK293 cells
Format: cell-based
observable: pIC50
Convention used: pIC50 is expressed as -log10 of the molar concentration.

Req: Entry `Nc1ccc(C(F)(F)F)cc1C(=O)NCC(=O)N[C@@H]1CCN(Cc2ccc(Cl)cc2)C1` has what pIC50?
Resp: 7.35

---

Biological target: C-C chemokine receptor type 2 (Homo sapiens, UniProt P41597)
Assay: Antagonist activity at human CCR2 in THP1 cells assessed as inhibition of MCP1-induced calcium flux
Type: functional, cell-based, THP-1
pIC50: −log10 of the molar value.
Decide by pIC50: equal to or exceeding 8 means fulfilled, less means not fulfilled.

Req: # check: pIC50 of `O=C(CNC(=O)c1cccc(C(F)(F)F)c1)N[C@@H]1CCN(Cc2ccc(O)cc2)C1` is greater than or equal to 8
Resp: not fulfilled

Req: Record `Cc1ccc(CN2CC[C@@H](NC(=O)CNC(=O)c3cccc(C(F)(F)F)c3)C2)cc1` ; criterion: pIC50 no lower than 8. Met?
Resp: not fulfilled

Req: hey, is pIC50 for this one >= 8? `CCc1ccc(CN2CC[C@@H](NC(=O)CNC(=O)c3cc(C(F)(F)F)ccc3N)C2)cc1`
Resp: fulfilled

Req: Does pIC50 meet or surpass 8 for `Nc1ccc(C(F)(F)F)cc1C(=O)NCC(=O)N[C@@H]1CCN(Cc2ccc(Cl)cc2)C1` ?
Resp: not fulfilled

---

Target: C-C chemokine receptor type 2 (Homo sapiens)
Test: Displacement of [125I]MCP1 from human CCR2b in THP1 cells
Type: cell-based, THP-1
For each entry below, report its pIC50 value.
// scale note: pIC50 = -log10(conc_M); give the bare number

Req: Requested field: pIC50. Item: `COc1cccc(CN2CC[C@@H](NC(=O)CNC(=O)c3cccc(C(F)(F)F)c3)C2)c1`
Resp: 5.50

Req: Return reported pIC50; argument: `N#Cc1ccc(CN2CC[C@@H](NC(=O)CNC(=O)c3cccc(C(F)(F)F)c3)C2)cc1`
Resp: 5.58

Req: Data request, read-out pIC50, for `Cc1ccc(CN2CC[C@@H](NC(=O)CNC(=O)c3cc(C(F)(F)F)ccc3N)C2)cc1`
Resp: 7.70

Req: Quick one: pIC50 for `O=C(CNC(=O)c1cccc(C(F)(F)F)c1)N[C@@H]1CCN(Cc2ccc(O)cc2)C1` ?
Resp: 6.65

Req: Using the record for `COc1ccc(CN2CC[C@@H](NC(=O)CNC(=O)c3cc(C(F)(F)F)ccc3N)C2)cc1` , report its pIC50.
Resp: 7.70

---

Biological target: C-C chemokine receptor type 2 (Homo sapiens)
Experiment: Displacement of [125I]MCP1 from human CCR2b in THP1 cells
Assay type: cell-based, THP-1
observable: pIC50
Quick note: pIC50 values are minus log10 of concentrations in mol/L.

Req: Suppose we examine the compound `O=C(CNC(=O)c1cccc(C(F)(F)F)c1)N[C@@H]1CCN(Cc2ccc(OC(F)(F)F)cc2)C1` ; what pIC50 value has been reported?
Resp: 6.21

Req: I am curious: what pIC50 value has been reported for `O=C(CNC(=O)c1cccc(Cl)c1)N[C@@H]1CCN(Cc2ccc(Cl)cc2)C1` ?
Resp: 5.62

Req: Given the compound `Cc1cccc(CN2CC[C@@H](NC(=O)CNC(=O)c3cccc(C(F)(F)F)c3)C2)c1` , what is its reported pIC50?
Resp: 5.51

Req: Give its pIC50 value. Item: `CSc1ccc(CN2CC[C@@H](NC(=O)CNC(=O)c3cccc(C(F)(F)F)c3)C2)cc1`
Resp: 6.69

Req: What value of measured pIC50 is listed for `Nc1ccc(C(F)(F)F)cc1C(=O)NCC(=O)N[C@@H]1CCN(Cc2ccc(Cl)cc2Cl)C1` ?
Resp: 7.02

Req: Using the record for `Nc1ccc(C(F)(F)F)cc1C(=O)NCC(=O)N[C@@H]1CCN(Cc2ccc(Cl)cc2)C1` , report its pIC50.
Resp: 7.59

Req: Given the entry `O=C(CNC(=O)c1cccc(Br)c1)N[C@@H]1CCN(Cc2ccc(Cl)cc2)C1` , report its measured pIC50.
Resp: 6.11

Req: // lookup pIC50 for `Nc1ccc(C(F)(F)F)cc1C(=O)NCC(=O)N[C@@H]1CCN(Cc2ccc(O)cc2)C1`
Resp: 7.38

Req: What measured pIC50 goes with `Nc1cc(CN2CC[C@@H](NC(=O)CNC(=O)c3cc(C(F)(F)F)ccc3N)C2)ccc1Cl` ?
Resp: 8.39

Req: Dear colleague, I am looking for the recorded pIC50 of the following compound: `COc1ccccc1CN1CC[C@@H](NC(=O)CNC(=O)c2cccc(C(F)(F)F)c2)C1`
Resp: 5.87

Req: # get_value(readout='pIC50', item= `O=C(CNC(=O)c1cccc(C(F)(F)F)c1)N[C@@H]1CCN(Cc2ccc(Br)cc2)C1` )
Resp: 6.78

Req: Could you share which pIC50 value was measured for `Cc1ccc(CN2CC[C@@H](NC(=O)CNC(=O)c3cccc(C(F)(F)F)c3)C2)cc1` ?
Resp: 6.94

Req: Quick one: pIC50 of `Nc1cc(CN2CC[C@@H](NC(=O)CNC(=O)c3cc(C(F)(F)F)ccc3N)C2)ccc1O` ?
Resp: 7.85

Req: What value of measured pIC50 is listed for `COc1ccc(CN2CC[C@@H](NC(=O)CNC(=O)c3cc(C(F)(F)F)ccc3N)C2)cc1N` ?
Resp: 8.28

Req: Name the reported pIC50 value associated with the compound `Nc1ccc(Br)cc1C(=O)NCC(=O)N[C@@H]1CCN(Cc2ccc(Cl)cc2)C1`
Resp: 6.19

Req: // lookup pIC50 for `Cc1ccc(CN2CC[C@@H](NC(=O)CNC(=O)c3cc(C(F)(F)F)ccc3N)C2)cc1N`
Resp: 8.21
